Protocol notes: Components of the Cytosolic LPS Sensing Pathway: Gene Identification via Genome-wide siRNA Screen
Experimental conditions: RAW264.7 macrophages, IL-1a HTRF, actives lie on both sides, screened at 100 nM (by protocol), cells primed 5 h with Pam3CSK4 first
Procedure: Non-canonical inflammasome activation by cytosolic LPS is a critical component of the host response to Gram-negative bacterial infection, however we lack a comprehensive understanding of the cellular processes that control this pathway. […] Lipofectamine RNAiMAX Transfection Reagent ([…]; Invitrogen) was added in […] serum-free, antibiotic-free media to plate wells using a Thermo Scientific Matrix WellMate and Microplate Stacker. […] The plates were read on an EnVision plate reader (PerkinElmer). […]
The whole screen tested about 53,000 sequences, of which about 3,700 (7%) were called active. Only a selection was taken, and actives are over-represented in it overall.
Record condition met whenever z-score is at -0.3 or higher; record condition not met when lower.

-- ask Assess whether reported z-score for GCACUCAGAACAACUAAAATT against Dglucy sits at -0.3 or higher.
-- reply condition met

-- ask Now give it for GGACUACAGUCAUUAUUCATT against Sycp2 too.
-- reply condition met

-- ask Now give it for GGAGAGUCUCCAGACUUUGTT against Med29 too.
-- reply condition not met

-- ask Now give it for GCUUGGUGUAAUCAUGCGCTT against Prl7d1 too.
-- reply condition met

-- ask Now give it for GCCAUUUGAAGGCUUUUGUTT against D130079A08Rik too.
-- reply condition not met

-- ask Now give it for GGCAACAGCAUCCUACUCUTT against Olfr652 too.
-- reply condition not met

-- ask Now give it for GGAGAGCUCUAUGGAUCGATT against Fgf16 too.
-- reply condition met

-- ask Now give it for GCUAAUACUGAAAUCGAUGTT against Ccdc73 too.
-- reply condition met

-- ask Now give it for CCAAGUCUUUGCCUACGUGTT against Dsn1 too.
-- reply condition met

-- ask Now give it for GGUCUUGUGGUGGUACUACTT against Elovl2 too.
-- reply condition met

-- ask Now give it for CCAAGAGUUGUCAAUAUAATT against Crisp3 too.
-- reply condition met

-- ask Now give it for GCACCUAGAUUGAUCAUAGTT against Olfr1183 too.
-- reply condition not met

-- ask Now give it for GGAUGAGCAGAUGCUCCAATT against Mtmr7 too.
-- reply condition met

-- ask Now give it for GCCUGGAUUAUAGGAUCACTT against Tmem208 too.
-- reply condition not met

-- ask Now give it for CCUGAAAGCUAAUAUGAAATT against Defb44-ps too.
-- reply condition met

-- ask Now give it for GGCUGUUUGCCAAAAAAAATT against Ppp1r16a too.
-- reply condition not met

-- ask Now give it for CGCAGGUGAGAGCAAUGUUTT against Lrrn4cl too.
-- reply condition not met

-- ask Now give it for GCGGUCAACUGGAAACUAATT against Dnaja3 too.
-- reply condition met

-- ask Now give it for CGCGGUGGAGCUUCGAGAATT against Nrtn too.
-- reply condition met

-- ask Now give it for GCACAUUGGGAUAGCUGCATT against Trim65 too.
-- reply condition met

-- ask Now give it for GGUUGUGAGUCAGUCUAGUTT against Tia1 too.
-- reply condition not met

-- ask Now give it for GAUGAAGAGGCAGGCCAAGTT against Nkx2-4 too.
-- reply condition met

-- ask Now give it for GGACCUGAGUUAGGAGAAUTT against Zfp105 too.
-- reply condition not met

-- ask Now give it for GGCACUGGAAAUAAAACCCTT against S100a14 too.
-- reply condition not met

-- ask Now give it for GGAGACUCUCACCUAUCAUTT against Doc2g too.
-- reply condition not met

-- ask Now give it for CCUUUGGAAUUUCUAAUACTT against Stil too.
-- reply condition met

-- ask Now give it for GGAACCUAUCCAAGAAGUATT against Ckap2 too.
-- reply condition met

-- ask Now give it for GCUAAUCCAGGACUGUUUATT against Trim14 too.
-- reply condition not met

-- ask Now give it for CGUGCUUAGCAAUCUGAAUTT against Bcl6b too.
-- reply condition met

-- ask Now give it for UUAGCCACUCAUUGUUCCATT against Olfr1303 too.
-- reply condition met

-- ask Now give it for GGUGUUGAGUUCAAGUCUATT against Dennd11 too.
-- reply condition not met

-- ask Now give it for GGACCAGAGGAGAUUUCAATT against Ern2 too.
-- reply condition met

-- ask Now give it for GGAGGACGUAUCAUUACAUTT against Twf1 too.
-- reply condition met

-- ask Now give it for GGACCUAUACAAGGGAGGUTT against Il1f10 too.
-- reply condition met

-- ask Now give it for CCAUCUUGACACCCAAACUTT against Olfr170 too.
-- reply condition not met

-- ask Now give it for GGAAAUCAGCUGAAUUACUTT against Dicer1 too.
-- reply condition met

-- ask Now give it for GGACACAGGGUCUCUUACATT against Msrb2 too.
-- reply condition not met

-- ask Now give it for GGGACAUGAGCCAUUCAUCTT against Lcor too.
-- reply condition met

-- ask Now give it for GCUUUGACUGGAAUGACGGTT against Pex7 too.
-- reply condition not met

-- ask Now give it for GGGACCCAAGGAUAUGAAUTT against Rbsn too.
-- reply condition met

-- ask Now give it for GCGACUGUACAACGAAUUGTT against Clp1 too.
-- reply condition met

-- ask Now give it for GCCAUGUUUAAGCAAUUGUTT against Vsx1 too.
-- reply condition not met

-- ask Now give it for GGAAUCUUUAGACCAUCUCTT against Myh1 too.
-- reply condition met

-- ask Now give it for GGCUCCUCAUUACCUCUACTT against Rrp7a too.
-- reply condition met

-- ask Now give it for GCUGUUUAUCUAGCUGUUATT against Mmp8 too.
-- reply condition met

-- ask Now give it for GGAGCAUUAUAUCAAUCCUTT against Zfp111 too.
-- reply condition met

-- ask Now give it for GGGAUAAGACAGGAGACUUTT against Slc16a11 too.
-- reply condition met

-- ask Now give it for CCUAUUGUGAGCUUAAUGCTT against Nrxn2 too.
-- reply condition not met

-- ask Now give it for GCUUUCAAGUGGUUAUGAATT against Nsun6 too.
-- reply condition met

-- ask Now give it for GGUGACCAAAAAAGCUUUATT against Pax9 too.
-- reply condition met

Recorded values, source PubChem BioAssay AID1508600.
